Molecular target: purified HLA DRB1*0401 (human)
Test: competition with 125I-labelled reference peptide, purified HLA
readoutKind: pIC50
Answers are plain numbers, as −log10 of the molar value.

Consider the following illustrative entries.
NNMINNDLGPATAQM (modifications not checked) [Flu.PB1.535] : 6.10
AGLLVSDGGPNLYNI (modifications not checked) [Flu.PB1.590] : 5.52

// switching to the query binder
GET /value?item= AKSMEYDAVATTHSW (modifications not checked) [Flu.PB1.655] &field=pIC50 returns 7.28
